Below, each entry is listed with its recorded kinase still bound, per cent of control.
# study_target: CDK16 (human)
# assay_comment: KINOMEscan competition binding
# measurement_context: compound 10.0 µM
recorded_endpoint: kinase still bound, per cent of control (%)

1. CCOc1cc(N2CCC(O)CC2)ccc1Nc1ncc2c(n1)N(C)c1ccccc1C(=O)N2C: 100
2. CC1=C(C(=O)Nc2cc3cn[nH]c3cc2F)C(c2ccc(C(F)(F)F)cc2)CC(=O)N1 (centres undefined): 100
3. COc1cc2ncnc(Nc3cccc(Cl)c3)c2cc1OC: 90
4. CNC(=O)Nc1ccc(-c2nc(N3CC4CCC(C3)O4)c3cnn(C4CCC5(CC4)OCCO5)c3n2)cc1: 100
5. N#C/C(=C1/Nc2ccccc2S1)c1ccnc(NCCc2cccnc2)n1: 44
6. COc1cc2c(Nc3ccc(NC(=O)c4ccccc4)cc3)ncnc2cc1OCCCN1CCOCC1: 64
7. CCCS(=O)(=O)Nc1ccc(F)c(C(=O)c2c[nH]c3ncc(Cl)cc23)c1F: 68
8. C=CC(=O)Nc1ccc(C(=O)c2sc(Nc3ccc(N4CCN(C)CC4)cc3OC)nc2N)cc1: 67
9. Cc1cn(-c2cc(C(=O)Nc3ccc(C)c(NC(=O)c4ccno4)c3)cc(C(F)(F)F)c2)cn1: 100
